meta.source: PubChem BioAssay AID1159580

experiment: chemical genetic growth profiling, strain panel (AID 1159580);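 further: tested at 20 µM; growth read once vehicle control cultures reached saturation at 30 °C; 1 = growth at the plate median or of vehicle wells; lower values mean less growth of the strain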; conditions: S. cerevisiae deletion strains, growth OD, locus YFR003C, strain YPI1, stronger effect = lower value
The campaign covered roughly 5,500 compounds. About 2,000 (36%) were called active. Roughly 18% stayed inconclusive and do not appear here. The list shows a part of the results.
Assign normalized growth to each entry below.
One number for each entry.

As a guide, the following entries are already answered.
Cc1ccc(Nc2ccnc3cc(Cl)ccc23)cc1F ... 0.996
CC(=O)c1ccc(Cl)c(NS(=O)(=O)c2cc(Cl)c(Cl)cc2Cl)c1 ... 0.917
O=[N+]([O-])c1ccc(-c2noc(-c3ccno3)n2)o1 ... 0.126
Cc1c(C(=O)Sc2ccc(F)cc2F)sc2nc(C(F)(F)F)nn12 ... 0.45
COc1cccc(C2CCN(C(=O)c3cccc4ccccc34)CC2)c1 ... 0.987
Cc1cccc(NC(=S)N/N=C\c2ccc(F)cc2)c1 ... 0.972
O=C(Oc1cccc2[nH]ccc12)c1ccc(C(F)(F)F)cc1 ... 0.966
COc1ccc(C(CC(=O)c2ccccc2)Sc2ccccc2N)cc1OC (centres undefined) ... 0.972

The value of normalized growth measured for the compound CCOC(=O)C1C(c2c(F)cccc2Cl)C(C(=O)OCC)C(O)(C(F)(F)F)NC1(O)C(F)(F)F (centres undefined) turned out to be 0.992

---

assay: chemical genetic growth profiling, strain panel (AID 1159580); conditions: S. cerevisiae deletion strains, growth OD, locus YOR265W, strain rbl2, stronger effect = lower value
Hit rate of the full screen: of about 5,500 compounds, about 2,000 (36%) were called active. Not shown: some 18% with an inconclusive outcome. This is one part of the list.
Parameter: normalized growth
Numbers only.

O=C(/C=C/c1ccc(O)c(O)c1)OCCc1ccccc1 ... 0.881
CC1(C)S[C@@H]2[C@H](NC(=O)[C@H](N)c3ccccc3)C(=O)N2[C@H]1C(=O)O ... 0.962
CC[C@@]1(O)C[C@H](O[C@H]2C[C@H](N(C)C)[C@H](O)[C@H](C)O2)c2c(cc3c(c2O)C(=O)c2c(O)cccc2C3=O)[C@H]1C(=O)OC ... 0.917
Cc1[nH]c2ccccc2c1CN(C)C ... 1.02
O=C(c1ccc(OCCN2CCCCC2)cc1)c1c(-c2ccc(O)cc2)sc2cc(O)ccc12 ... 1.01

I have 8 molecules here; please give me normalized growth for each one.
1. COc1ccc(CN(CCN(C)C)c2ccccn2)cc1
2. O=C(/C=C/c1ccc(O)c(O)c1)OC(Cc1ccc(O)c(O)c1)C(=O)O (stereo not given)
3. CN(C)CCN(Cc1cccs1)c1ccccn1
4. NS(=O)(=O)c1cc2c(cc1Cl)NC=NS2(=O)=O
5. O=S(=O)(O)c1cc(N=C=S)ccc1/C=C/c1ccc(N=C=S)cc1S(=O)(=O)O
6. CN1C2CCC1CC(OC(c1ccccc1)c1ccccc1)C2 (stereo not given)
7. CC[C@@]1(O)C[C@H](O[C@H]2C[C@H](N(C)C)[C@H](O)[C@H](C)O2)c2c(cc3c(c2O)C(=O)c2c(O)ccc(O)c2C3=O)[C@H]1C(=O)OC
8. COc1ccc2c(c1)OC1(O)COc3cc(OC)c(OC)cc3C1=C2 (stereo not given)

[1.02, 1.01, 1.01, 1, 1.02, 0.988, 0.899, 0.982]

---

test: chemical genetic growth profiling, strain panel (AID 1159580);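 further: tested at 20 µM; growth read once vehicle control cultures reached saturation at 30 °C; 1 = growth at the plate median or of vehicle wells; lower values mean less growth of the strain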; conditions: S. cerevisiae deletion strains, growth OD, locus YER155C, strain BEM2
Hit rate of the full screen: of about 5,500 compounds, about 2,000 (36%) were called active. Roughly 18% stayed inconclusive and do not appear here. Rule as the data show it: active = normalized growth mostly below about 0.91 (no sharp cut-off); inconclusive = no clear call, values can overlap the other calls; inactive = mostly above about 0.92. This is one part of the list.
Mark one answer only. Choices: active, inactive

Answered examples (8):
Cc1ncc(CNC(=O)N(CCCl)N=O)c(N)n1 ... inactive
Nc1nc(=S)c2[nH]cnc2[nH]1 ... inactive
COc1c(N2CCNC(C)C2)c(F)cc2c(=O)c(C(=O)O)cn(C3CC3)c12 (stereo unspecified) ... inactive
Cc1ccccc1C(OCCN(C)C)c1ccccc1 (stereo unspecified) ... inactive
CC[C@@H](C(=O)C(C)[C@@H](O)[C@H](C)CCc1ccc(C)c(O)c1C(=O)O)C1OC(CC)(C2CC[C@](O)(CC)[C@H](C)O2)C[C@@H]1C (stereo partly specified) ... active
C[C@@H]1CC(Cl)CC[C@H]1C(=O)OC(C)(C)C (stereo partly specified) ... inactive
CCn1cc(C(=O)O)c(=O)c2cc(F)c(N3CCNCC3)nc21 ... inactive
CC[C@H]1OC(=O)[C@H](C)[C@@H](O[C@H]2C[C@@](C)(OC)[C@@H](O)[C@H](C)O2)[C@H](C)[C@@H](O[C@@H]2O[C@H](C)C[C@H](N(C)C)[C@H]2O)[C@](C)(OC)C[C@@H](C)C(=O)[C@H](C)[C@@H](O)[C@]1(C)O ... inactive

Field: outcome | Entry: CC1CCc2cc(F)cc3c(=O)c(C(=O)O)cn1c23 (stereo unspecified)
inactive

Field: outcome | Entry: CN1C2C[C@H](OC(=O)[C@H](CO)c3ccccc3)C[C@H]1[C@@H](O)C2
inactive

Field: outcome | Entry: CC1(C)S[C@@H]2[C@H](NC(=O)[C@H](N)c3ccccc3)C(=O)N2[C@H]1C(=O)O
inactive

---

assay: chemical genetic growth profiling, strain panel (AID 1159580);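 further: tested at 20 µM; growth read once vehicle control cultures reached saturation at 30 °C; 1 = growth at the plate median or of vehicle wells; lower values mean less growth of the strain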; details: S. cerevisiae deletion strains, growth OD, locus YAL026C, strain drs2, stronger effect = lower value
The campaign covered roughly 5,500 compounds. About 2,000 (36%) were called active. Roughly 18% stayed inconclusive and do not appear here. Some of the results follow.
Consider the cut-off 1. If the recorded normalized growth is strictly smaller, the label is fulfilled; if not, the label is not fulfilled.

Answered examples (3):
NCCCS(=O)(=O)O ... not fulfilled
C=CCCCCCCCCCCCc1ccco1 ... fulfilled
C[n+]1c2cc(N)ccc2cc2ccc(N)cc21 ... fulfilled

Does this compound meet the criterion normalized growth < 1? O=C(O)CCCc1ccc(N(CCCl)CCCl)cc1
fulfilled

Does this compound meet the criterion normalized growth < 1? CC[C@]1(O)CC2CN(CCc3c([nH]c4ccccc34)[C@@](C(=O)OC)(c3cc4c(cc3OC)N(C)[C@H]3[C@@](O)(C(=O)OC)[C@H](OC(C)=O)[C@]5(CC)C=CCN6CC[C@]43[C@@H]65)C2)C1 (stereo partly specified)
fulfilled

---

experiment: chemical genetic growth profiling, strain panel (AID 1159580);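 further: tested at 20 µM; growth read once vehicle control cultures reached saturation at 30 °C; 1 = growth at the plate median or of vehicle wells; lower values mean less growth of the strain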; conditions: S. cerevisiae deletion strains, growth OD, locus YIL125W, strain kgd1, stronger effect = lower value
In all, about 5,500 compounds went through this assay and about 2,000 (36%) were called active. Another 18% or so got no clear call; they are omitted. Some of the results follow.
Parameter: normalized growth
Answers are plain numbers.

I have 2 compounds here; please give me normalized growth for each one.
1. CCCCCCCCCCC[C@@H](C[C@H]1OC(=O)[C@H]1CCCCCC)OC(=O)[C@@H](CC(C)C)NC=O
2. C[n+]1c2cc(N)ccc2cc2ccc(N)cc21

1. 1
2. 0.945

I have 8 compounds here; please give me normalized growth for each one.
1. C/C=C(\C)C(=O)O[C@H]1C[C@@H](OC(C)=O)[C@@]2(C(=O)OC)CO[C@@H]3C2[C@]12CO[C@](O)(C(=O)OC)[C@H]2[C@](C)(C12O[C@@]1(C)[C@H]1C[C@@H]2OC2OC=C[C@@]21O)[C@@H]3O (stereo partly specified)
2. CCCCC[C@H]1C(=O)O[C@H](C)[C@H](NC(=O)c2cccc(NC=O)c2O)C(=O)O[C@@H](C)[C@@H]1OC(=O)CC(C)C
3. N[C@@H](Cc1ccc(N(CCCl)CCCl)cc1)C(=O)O
4. CN1C2CCC1CC(OC(c1ccccc1)c1ccccc1N)C2 (stereo unspecified)
5. COc1cc2nc(N(C)CCCNC(=O)C3CCCO3)nc(N)c2cc1OC (stereo unspecified)
6. C=C[C@@](C)(O)CCC1C(=C)C[C@H](O)C2C(C)(C)CCCC12C (stereo partly specified)
7. Cc1ccc(S(=O)(=O)NC(=O)NN2CCCCCC2)cc1
8. O=C(O)CCCc1ccc(N(CCCl)CCCl)cc1

1: 0.995; 2: 0.896; 3: 0.979; 4: 1; 5: 1.01; 6: 1.02; 7: 0.982; 8: 0.95

I have 6 compounds here; please give me normalized growth for each one.
1. O=C1CCC(N2C(=O)c3ccccc3C2=O)C(=O)N1 (stereo unspecified)
2. CC1(C)CCC[C@@]2(C)C1[C@@H](O)C[C@]1(C)C2CC[C@@H]2[C@@]3(C)CC[C@H](C(C)(C)O)[C@@H]3CC[C@@]21C (stereo partly specified)
3. COC(=O)/C=C/C(C)=C/C=C/C(C)=C/C=C/C=C(C)/C=C/C=C(C)/C=C/C(=O)O
4. C=C1C2CC[C@@]3(C)[C@H](c4ccoc4)OC(=O)C[C@]13O[C@H]1CC(=O)C(C)(C)[C@H](C(OC(C)=O)C(=O)OC)[C@@]21C (stereo partly specified)
5. COC(=O)[C@@H]1OC(=O)C2OC23[C@@]1(C)CCC1[C@]2(C)C(C[C@H](O)[C@]13C)C(C)(C)[C@H](OC(C)=O)C[C@@H]2OC(C)=O (stereo partly specified)
6. C=C[C@@](C)(O)CCC1C(=C)C[C@H](OC(C)=O)C2C(C)(C)CCCC12C (stereo partly specified)

1: 0.997; 2: 0.972; 3: 0.997; 4: 0.994; 5: 0.998; 6: 0.976

I have 5 compounds here; please give me normalized growth for each one.
1. C[C@]12CCC(=O)C=C1C=CC1C2CC[C@@]2(C)C1CC[C@@]21CCC(=O)O1 (stereo partly specified)
2. C[C@]12CCC(=O)C=C1C=CC1C2CC[C@@]2(C)C1CC[C@@]2(O)CCC(=O)O (stereo partly specified)
3. CN1C2C[C@H](OC(=O)[C@H](CO)c3ccccc3)C[C@H]1[C@@H](O)C2
4. CN1C2CCC1CC(OC(c1ccccc1)c1ccccc1)C2 (stereo unspecified)
5. O=C(O)CCCc1ccccc1

[0.979, 1.01, 0.991, 0.982, 0.892]
